Listing: Euclidean distance of selected compounds
Tested on: OVCAR4
Experiment: Euclidean distance of Cell Painting phenotypic profile (signed KS, 77 features) to DMSO centroid (dimensionless distance); 5 or 10 uM (library dependent); higher = stronger phenotypic change vs DMSO (phenoactivity)
Settings: 48 h
Structures can show the parent of a compound that is named as a salt.
Hey, just send me the number, nothing else.

Consider the reported Euclidean distance for these compounds:
COMPOUND: CC(C)(O/N=C(\C(=O)N[C@@H]1C(=O)N2C(C(=O)[O-])=C(C[n+]3ccccc3)CS[C@H]12)c1csc(N)n1)C(=O)O [Ceftazidime]
MEASURED_TARGET: OVCAR4
Euclidean distance: 1.62

COMPOUND: COC(=O)OCOc1c2n(ccc1=O)N([C@@H]1c3ccccc3SCc3c1ccc(F)c3F)[C@@H]1COCCN1C2=O [Baloxavir marboxil]
MEASURED_TARGET: OVCAR4
Euclidean distance: 0.843

COMPOUND: CN1CCN(c2cccc(Nc3nc4c(-c5ccc(S(C)(=O)=O)cc5)cccn4n3)c2)CC1
MEASURED_TARGET: OVCAR4
Euclidean distance: 1.25

COMPOUND: N=C(N)NC(=O)Cc1c(Cl)cccc1Cl [Guanfacine Hydrochloride]
MEASURED_TARGET: OVCAR4
Euclidean distance: 0.929

Param item: CC(=O)OCC[N+](C)(C)C [Acetylcholine Chloride] ; param system: OVCAR4; output Euclidean distance: 1.13

// Euclidean distance (OVCAR4) for CCn1c(=O)c(-c2cc(NC(=O)Nc3ccccc3)c(F)cc2Br)cc2cnc(NC)cc21 = 1.1

// compound CC(C)(C)c1nc(-c2cccc(NS(=O)(=O)c3c(F)cccc3F)c2F)c(-c2ccnc(N)n2)s1 , assay OVCAR4, Euclidean distance value: 1.03

Readout Euclidean distance for O=C(O)C1=C(CSc2nnnn2CS(=O)(=O)O)CS[C@@H]2[C@H](NC(=O)[C@H](O)c3ccccc3)C(=O)N12 [Cefonicid sodium] , test system OVCAR4, was 1.46

Each recorded value in this set is attributed to the supplement of paper PMC10127200.
